Test system: PfSIP2 AP2 domain 1 (GST-tagged)
Experiment: gcPBM binding intensity (ln(normalized median fluorescence intensity)); higher = stronger DNA binding
Over roughly 25,000 sequences, “ln(normalized median fluorescence intensity)” has its median near 7.1; the highest 2% begin near 10. This is one part of a sample in which the highest values are shown more often than they occur.
metric: gcPBM binding intensity (ln)
Form rule: numeric answer, no unit written next to it.

>>> measurement("ATATATATTATGTGTGTGCACTTTTGTTATTATTAT")
10.4
>>> measurement("AAATATATGTTATATGTGCACTTTTTTTTTTTTTTT [GTGCAC_site9667]")
10.4
>>> measurement("TTTTTTTTTTTTTTGTGTACATATAATGCACATTAT [XGTACX_site6505]")
8.07
>>> measurement("TACATATTTTGTATATATTATTTATTTTATTAGTTT [XGTACX_negctrl_site85]")
6.74
>>> measurement("GAATAATATGGACATACACACATATACATACCTATA [CACACA_site7075]")
7.25

Please find the next sequence below.
For the sequence ATATTTATTTGTTAGTGTACATACATATATATATAT [XGTACX_site1347] , what gcPBM binding intensity (ln) is on record?
9.24

* * *

Test system: PfSIP2 AP2 domain 1 (GST-tagged)
Experiment: gcPBM binding intensity (ln(normalized median fluorescence intensity)); higher = stronger DNA binding
Whole data set: some 25,000 sequences, median “ln(normalized median fluorescence intensity)” near 7.1, cut for the highest 2% near 10. The entries come from a sample that favours the highest values as a whole.
Class definitions on gcPBM binding intensity (ln): lower level = under 8, middle level = from 8 up to 9, upper level = 9 and over

Here are 4 sequences together with their reported answers.
>>> assigned_label("AAGAGGATACACAATGTGCACTTTTTTTTTTTTTTT [GTGCAC_site9415]")
"upper level"
>>> assigned_label("TCACATTTTGGACACGTGCACATATATTTGATACAT")
"middle level"
>>> assigned_label("TCCTTATATTTGCACACACACACAAGAAAATGAAAA [CACACA_site6613]")
"middle level"
>>> assigned_label("TTAAAATGAAGAAGTGCACACATATATATATTTATA [CACACA_site8063]")
"upper level"

Textbook exercise: identify the category of the sequence given here, TATAAGAGGATATATACACACAAAAATATGTACAGT [CACACA_site6885] , according to its measured value.
lower level

Looking at CATAAAAATGAACATACACACATATATTTATTTATA [CACACA_site7222] , which class would you pick?
lower level

Please classify: ATCATATTTATGTTGGTGCATTATGCATGGATTTTA [GTGCAC_site9795]
upper level

For this sequence, which bin applies? AAAAAAAAAGATCACACACACATAAATATAAACAAA [CACACA_site5285]
lower level

Where would AAAAAAAAATTATTCACACATATATATATATATATA [CACACA_site5579] land among the classes by reported gcPBM binding intensity (ln)?
upper level

* * *

Tested on: PfSIP2 AP2 domain 1 (GST-tagged)
Test: gcPBM binding intensity (ln(normalized median fluorescence intensity)); higher = stronger DNA binding
In all, about 25,000 sequences were measured (“ln(normalized median fluorescence intensity)”: median about 7.1, highest 2% from about 10 on). This is one part of a sample in which the highest values are shown more often than they occur.
Documented gcPBM binding intensity (ln) across a set of sequences
Lab note: record the figure alone, no unit after it.

>>> measurement("TTAATTGACATAAAAAGTACTCATATAGATATGCAC [XGTACX_site6391]")
8.9
>>> measurement("TATATTATAGGTTGTGTACACATATTATATAGTACT [CACACA_site4583]")
7.16

From here, focus on the item given below.
GET /values?readout=gcPBM binding intensity (ln)&item= TATTAAATATATATTACATGCAAAAAAAAAAAACAA [TGCATGCA_site705]
7.13

* * *

Tested on: PfSIP2 AP2 domain 1 (GST-tagged)
Experiment: gcPBM binding intensity (ln(normalized median fluorescence intensity)); higher = stronger DNA binding
In all, about 25,000 sequences were measured (“ln(normalized median fluorescence intensity)”: median about 7.1, highest 2% from about 10 on). What follows is part of a selection rich in the highest values, with near analogues and random picks from the rest.
Binary call on gcPBM binding intensity (ln): class 1 from 10 upward, class 0 beneath that.

>>> assigned_label("AGAATAATAAAATGGGTGCAATAGTTTTTTTTTTTT [GTGCAC_site9823]")
"class 1"
>>> assigned_label("TGGGAAAAAATATATGCACACCCCCCAAAAAAAAAA [CACACA_site8696]")
"class 1"
>>> assigned_label("TATTTATGCACGCGTGCACACACATATGAAAAAAGG [CACACA_site9090]")
"class 1"
>>> assigned_label("TTTTATAAACAGAGGGGTACGGGAAAAAAAAAAAAA [XGTACX_site1480]")
"class 0"
>>> assigned_label("TTTTTTTTTTTGTGGGTGCGTTTATAAAAACAGGAA")
"class 1"
>>> assigned_label("ATTGTGGCAATATATTGTACATGTAATATAAATATA [XGTACX_site5415]")
"class 0"

Given TCAATATATATAAGAAGTACATGTGAATGAAAAAAA [XGTACX_site1674] , state whether its gcPBM binding intensity (ln) is at least 10.
class 0

State whether the measured gcPBM binding intensity (ln) reaches 10, counting equality as reaching it, for CCATATAATATGAACAGTACACACAAAATAAATTCG [XGTACX_site7590]
class 0

Is it the case that TTTGTATAGTTGTAGGTGCATATCATTTTTAAATGT [GTGCAC_site9708] has gcPBM binding intensity (ln) reaching or exceeding 10?
class 1

* * *

Test system: PfSIP2 AP2 domain 1 (GST-tagged)
Assay: gcPBM binding intensity (ln(normalized median fluorescence intensity)); higher = stronger DNA binding
Over roughly 25,000 sequences, “ln(normalized median fluorescence intensity)” has its median near 7.1; the highest 2% begin near 10. The entries come from a sample that favours the highest values as a whole.
metric: gcPBM binding intensity (ln)

>>> measurement("CAAATATATATTTATTGTACATATTGTTTATATGGT [XGTACX_site5246]")
7.14
>>> measurement("TATTAGTCGAATGATGTACACACATACAAAACATTT [CACACA_site9331]")
6.96
>>> measurement("ATCATAAATTATTATACACACAATACGTGACCTATT [CACACA_site1906]")
7.06
>>> measurement("ATTTTTATGTTGAAAAGTACTTGAATCCCATGTAAC [XGTACX_site4453]")
7.09
>>> measurement("TACTATCTATACAATACACACAAAAAAAAAAAAATA [CACACA_site3981]")
6.95

Entry ATATTTATATATAGTAGTACTTTCAATAATTTAAAT [XGTACX_site7276] , system PfSIP2 AP2 domain 1 (GST-tagged): what gcPBM binding intensity (ln) was measured?
7.05

Given the entry TCATATTTCCATAGGAGTACATAAAAAAAATAATAT [XGTACX_site7601] , what gcPBM binding intensity (ln) was observed with PfSIP2 AP2 domain 1 (GST-tagged)?
7.06

Lookup: gcPBM binding intensity (ln) / PfSIP2 AP2 domain 1 (GST-tagged) / TATATGAAGTACACAATACACACTAATTATATATAA [CACACA_site2608]
7.12

* * *

System: PfSIP2 AP2 domain 1 (GST-tagged)
Assay: gcPBM binding intensity (ln(normalized median fluorescence intensity)); higher = stronger DNA binding
In all, about 25,000 sequences were measured (“ln(normalized median fluorescence intensity)”: median about 7.1, highest 2% from about 10 on). The sample as a whole holds a higher share of the highest values than the screen did.
metric: gcPBM binding intensity (ln)
Give the figure by itself; no unit, no explanation.

Previously resolved entries follow.
>>> measurement("TATTTTTAGAAAATAAAGAAGGAGAATTGAAAATAT [CACACA_negctrl_site361]")
7.06
>>> measurement("ATTTATTTATTTAGCTGTACATTTATACAGAACGAT [XGTACX_site3336]")
7

Please find the next sequence below.
# gcPBM binding intensity (ln) lookup, item TTTATAAAATATCTTTCACACATTACTATGTATTAT [CACACA_site5148]
6.83

* * *

Tested on: PfSIP2 AP2 domain 1 (GST-tagged)
Assay: gcPBM binding intensity (ln(normalized median fluorescence intensity)); higher = stronger DNA binding
Whole data set: some 25,000 sequences, median “ln(normalized median fluorescence intensity)” near 7.1, cut for the highest 2% near 10. Many of the other results were omitted from the sample, so the highest values are more common in it than they were.
metric: gcPBM binding intensity (ln)
Number, no unit, nothing else.

Worked set:
>>> measurement("ATATATAAATATAGCATACACACAAAAAAATAAAAT [CACACA_site2332]")
7.11
>>> measurement("TTTTTTAAATATATGGTGCATAGAAAGATATTATAC [GTGCAC_site9984]")
10
>>> measurement("GTGTTGGGAAAAGGCATGCACTTTTTTTTTTTTTTT")
9.34

Fill in: gcPBM binding intensity (ln) of TTGCATTAATTTATGTGTACATATAAATTTTTATTT [XGTACX_site3060] is ___
7.41

Fill in: gcPBM binding intensity (ln) of AAACATAAATTTTATTGTACATTATATAGAATTTTC [XGTACX_site576] is ___
6.81

Give its gcPBM binding intensity (ln) value. Item: AATTTAATATAATGCACACATAAAAAAAAATTCAAA [CACACA_site2062]
7.16

Quick one: gcPBM binding intensity (ln) of ATAAAAATAAAAAGTGTGCACACAAAAATATATATA [GTGCAC_site9931] ?
8.78

Which gcPBM binding intensity (ln) value belongs to TTTTATAATCATAATAGTACTTTTTCTTTTTCACAT [XGTACX_site5017] ?
6.7

So what's the measured gcPBM binding intensity (ln) for this one? TTATTTTTATTATAAATTATAAAATATAAATAAATA [GTGCAC_negctrl_site616]
6.79
